Cited source: the RepoRT retention time repository

Experiment: RP, Waters ACQUITY UPLC HSS T3, 0.4 mL/min; A: water + 0.01% formic acid; B: 50% water + 50% acetonitrile + 0.01% formic acid; gradient (min/%B) 0/0 0.5/0 9/30 10/50 15/100 16/100 17/0 25/0
Details: stereoisomer not certain
readout: LC retention time (min)
One number for each entry, in min.

Each compound below has a recorded value; state its LC retention time.
1. Nc1ccn(C2OC(CO)C(O)C2O)c(=O)n1 (stereo not drawn)
2. Nc1nc2c(ncn2C2OC(CO)C(O)C2O)c(=O)[nH]1 (stereo not drawn)
3. COC1C(O)C(CO)OC1n1cnc2c(N)ncnc21 (stereo not drawn)
4. COC1C(O)C(CO)OC1n1ccc(=O)[nH]c1=O (stereo not drawn)
5. COC1C(c2c[nH]c(=O)[nH]c2=O)OC(CO)C1O (stereo not drawn)
6. O=c1ccn(C2OC(CO)C(O)C2O)c(=O)[nH]1 (stereo not drawn)
7. COC1C(O)C(CO)OC1n1cnc2c(=O)[nH]c(N)nc21 (stereo not drawn)

result:
[0.92, 4.08, 5.78, 4.79, 4.95, 2.04, 5.34]

query: For the compound Nc1ncnc2c1ncn2C1OC(CO)C(O)C1O (stereo not drawn) , what LC retention time is on record?
result: 4.57
